Source: ChEMBL document CHEMBL4359867

assay: Cytotoxicity against human A549 cells assessed as inhibition of cell growth at 0.5 uM after 48 hrs under normoxic condition by CCk-8 assay relative to control; format: cell-based
Respond with Fulfilled for inhibition at 48 h, 0.5 µM values of 8% and above, Not fulfilled for values below.

chemicalSmiles | classAssignment
COc1cc2c(Nc3ccc(F)cc3)ncnc2cc1OCCOCCNC(=O)Cn1cnc([N+](=O)[O-])n1 | Fulfilled
COc1cc2c(Nc3ccc(F)cc3Cl)ncnc2cc1OCCOCCNC(=O)Cn1cnc([N+](=O)[O-])n1 | Fulfilled
COc1cc2c(Nc3ccc(C)c(Br)c3)ncnc2cc1OCCOCCNC(=O)Cn1cnc([N+](=O)[O-])n1 | Not fulfilled
COc1cc2c(Nc3ccc(Br)cc3F)ncnc2cc1OCCNC(=O)Cn1cnc([N+](=O)[O-])n1 | Fulfilled
COc1cc2c(Nc3ccc(Br)cc3F)ncnc2cc1OCCOCCOCCNC(=O)Cn1cnc([N+](=O)[O-])n1 | Fulfilled
COc1cc2c(Nc3ccc(Br)cc3F)ncnc2cc1OCCOCCNC(=O)Cn1cnc([N+](=O)[O-])n1 | Not fulfilled
COc1cc2c(Nc3ccc(Cl)c(Cl)c3F)ncnc2cc1OCCOCCNC(=O)Cn1cnc([N+](=O)[O-])n1 | Fulfilled
COc1cc2c(Nc3ccc(Br)cc3F)ncnc2cc1OCC1CCN(C)CC1 | Fulfilled

###

experiment: Cytotoxicity against human NCI-H446 cells assessed as inhibition of cell growth at 0.5 uM after 48 hrs under normoxic condition by CCk-8 assay relative to control; assay type: cell-based
Catalogue of inhibition at 48 h, 0.5 µM readings, one per entry.
resultType: inhibition at 48 h, 0.5 µM (%)

chemicalSmiles | resultType | unitOfMeasurement | readoutNumber
COc1cc2c(Nc3ccc(Cl)c(Cl)c3F)ncnc2cc1OCCOCCNC(=O)Cn1cnc([N+](=O)[O-])n1 | inhibition at 48 h, 0.5 µM | % | 20.5
COc1cc2c(Nc3ccc(Br)cc3F)ncnc2cc1OCCOCCOCCNC(=O)Cn1cnc([N+](=O)[O-])n1 | inhibition at 48 h, 0.5 µM | % | 20.4
COc1cc2c(Nc3ccc(Br)cc3F)ncnc2cc1OCC1CCN(C)CC1 | inhibition at 48 h, 0.5 µM | % | 25.6
COc1cc2c(Nc3ccc(Br)cc3F)ncnc2cc1OCCNC(=O)Cn1cnc([N+](=O)[O-])n1 | inhibition at 48 h, 0.5 µM | % | 16.8

###

system: NCI-H446; assay: Antiproliferative activity against human NCI-H446 cells assessed as inhibition of cell growth at 0.5 uM in hypoxia condition (200 uM CoCl2) and under irradiation at 8 Gy for 24 hrs and measured after 24 hrs by CCK8 assay (reference value: 68.77%); type: functional

compound | inhibition (INH), %
COc1cc2c(Nc3ccc(Cl)c(Cl)c3F)ncnc2cc1OCCOCCNC(=O)Cn1cnc([N+](=O)[O-])n1 | 85
COc1cc2/c(=N/c3ccc(Br)cc3F)nc[nH]c2cc1OCC1CCN(C)CC1 [VANDETANIB] | 82.02
COc1cc2c(Nc3ccc(F)cc3Cl)ncnc2cc1OCCOCCNC(=O)Cn1cnc([N+](=O)[O-])n1 | 83.35
COc1cc2c(Nc3ccc(Br)cc3F)ncnc2cc1OCCNC(=O)Cn1cnc([N+](=O)[O-])n1 | 79.03

###

test: Toxicity in po dosed Balb/c mouse assessed as maximum tolerated dose administered 5 times per week for 2 weeks; type: organism-based; settings: in vivo
resultType: MTD at 336 h (mg/kg)

chemicalSmiles | unitOfMeasurement | readoutNumber
COc1cc2c(Nc3ccc(Br)cc3F)ncnc2cc1OCCOCCNC(=O)Cn1cnc([N+](=O)[O-])n1 | mg/kg | 100
